Tested Target: CYP 2C19 (Homo sapiens (Human))
Sequence (P33261 whole entry): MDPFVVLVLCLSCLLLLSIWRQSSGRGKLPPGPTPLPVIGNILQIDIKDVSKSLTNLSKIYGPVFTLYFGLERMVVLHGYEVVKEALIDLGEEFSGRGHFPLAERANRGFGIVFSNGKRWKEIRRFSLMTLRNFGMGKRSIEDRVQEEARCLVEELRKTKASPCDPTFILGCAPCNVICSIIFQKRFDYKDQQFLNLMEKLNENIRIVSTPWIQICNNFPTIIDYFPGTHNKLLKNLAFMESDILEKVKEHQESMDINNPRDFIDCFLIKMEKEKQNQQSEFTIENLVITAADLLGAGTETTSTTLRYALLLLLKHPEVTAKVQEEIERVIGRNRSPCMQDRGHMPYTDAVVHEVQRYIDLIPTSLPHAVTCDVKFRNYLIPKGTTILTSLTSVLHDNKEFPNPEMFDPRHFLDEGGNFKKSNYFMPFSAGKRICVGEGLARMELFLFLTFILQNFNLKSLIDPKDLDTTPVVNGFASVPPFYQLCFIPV
Assay Text: in vitro
Condition Context: % Mean
Protocol: CYP450 inhibition profiling provides valuable information regarding any possible drug-drug interactions for a test compound. All experiments were performed using P450-Glo™ Assay Systems (Promega) in accordance with the manufacturer's protocols. The P450-Glo™ Assays provide a luminescent readout-based method for measuring cytochrome P450 activity. A conventional cytochrome P450 reaction was performed by incubating the cytochrome P450 and a luminogenic cytochrome P450 substrate. […]
Quantity Kind: inhibition at 10 µM (%)
Numbers only; they are read as %.

Solved entries:
> print(dat)
                         chemical.structure        quantity.kind  recorded.measurement
1   Cc1nc2c(c(N3CCCN(Cc4ccccc4)CC3)n1)CCCC2  inhibition at 10 µM                  16.2
2    CC(C)c1nccn1CC(=O)Nc1ccc(-c2ccccc2)cc1  inhibition at 10 µM                  -9.5
3  O=C(Cn1ccnc1-c1ccccn1)Nc1ccc(-c2ccccc2)cc1  inhibition at 10 µM                 -10.3

**Q:** I am curious: what inhibition at 10 µM value has been reported for "O=C(Cn1cnc2c1CCCC2)Nc1ccc(-c2ccccc2)cc1" ?
**A:** 9.4

**Q:** What do we get for "CC(C)(C)Sc1ccc(NC(=O)Cn2ccnc2)cc1" ?
**A:** 92.5

----------
Tested Target: CYP 2D6 (Homo sapiens (Human), UniProt P10635)
Sequence (P10635 whole entry): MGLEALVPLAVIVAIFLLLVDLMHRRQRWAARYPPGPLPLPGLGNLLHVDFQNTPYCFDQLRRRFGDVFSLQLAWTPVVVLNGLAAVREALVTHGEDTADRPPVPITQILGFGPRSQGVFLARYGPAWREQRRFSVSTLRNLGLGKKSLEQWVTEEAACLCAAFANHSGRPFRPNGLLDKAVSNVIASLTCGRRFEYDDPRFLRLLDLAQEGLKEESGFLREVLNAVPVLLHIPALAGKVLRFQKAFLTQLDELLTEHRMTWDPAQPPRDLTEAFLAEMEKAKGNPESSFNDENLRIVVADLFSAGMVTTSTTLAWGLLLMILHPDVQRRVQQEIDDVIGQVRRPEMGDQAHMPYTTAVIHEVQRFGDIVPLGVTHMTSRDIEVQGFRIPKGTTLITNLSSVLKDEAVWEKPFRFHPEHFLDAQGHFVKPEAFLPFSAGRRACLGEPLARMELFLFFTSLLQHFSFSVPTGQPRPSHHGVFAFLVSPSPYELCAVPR
Assay Text: in vitro
Condition Context: Inhibition, % Mean
Note to self: values exactly at 60% are criterion met. So inhibition at 10 µM at or above 60% is criterion met, below is criterion not met.

Worked examples, 2 compounds total:
> print(dat)
                                   compound     category.label
1  CC(C)(C)Sc1ccc(NC(=O)Cn2ccnc2)cc1 [Compound 3]      criterion met
2  O=C(Cn1cnc2c1CCCC2)Nc1ccc(-c2ccccc2)cc1 [Compound 1]  criterion not met

**Q:** Determine whether this compound has inhibition at 10 µM no lower than 60%: CC(C)c1nccn1CC(=O)Nc1ccc(-c2ccccc2)cc1 [Compound 2]
**A:** criterion not met

**Q:** What do we get for O=C(Cn1ccnc1-c1ccccn1)Nc1ccc(-c2ccccc2)cc1 [Compound 4] ?
**A:** criterion not met

----------
Reported Binding values, % Mean is given for each of the following compounds.
Tested Target: UniProtKB Q12809
Condition Context: 5 μM
Numbers only; they are read as %.

Solved entries:
> print(dat)
                         chemical.structure           quantity.kind  recorded.measurement
1    CC(C)c1nccn1CC(=O)Nc1ccc(-c2ccccc2)cc1  Binding values, % Mean                    74
2   O=C(Cn1cnc2c1CCCC2)Nc1ccc(-c2ccccc2)cc1  Binding values, % Mean                    99
3  O=C(Cn1ccnc1-c1ccccn1)Nc1ccc(-c2ccccc2)cc1  Binding values, % Mean                    27
4   Cc1nc2c(c(N3CCCN(Cc4ccccc4)CC3)n1)CCCC2  Binding values, % Mean                    73

**Q:** I am curious: what Binding values, % Mean value has been reported for "CC(C)(C)Sc1ccc(NC(=O)Cn2ccnc2)cc1" ?
**A:** 115

----------
System: TA 98
Assay Text: Ames Test, strain TA 98
Condition Context: TA 98, 50 μM
Quantity Kind: Mean ± SD

> print(dat)
                        chemical.structure  tested.target                    recorded.measurement
1  O=C(Cn1cnc2c1CCCC2)Nc1ccc(-c2ccccc2)cc1          TA 98  1.5 ± 0.7 revertant colonies per plate

**Q:** Hi! What's the reported Mean ± SD for "CC(C)c1nccn1CC(=O)Nc1ccc(-c2ccccc2)cc1" on TA 98?
**A:** 1 ± 1.41 revertant colonies per plate

**Q:** What do we get for "CC(C)(C)Sc1ccc(NC(=O)Cn2ccnc2)cc1" ?
**A:** 1.5 ± 0.7 revertant colonies per plate

**Q:** What do we get for "Cc1nc2c(c(N3CCCN(Cc4ccccc4)CC3)n1)CCCC2" ?
**A:** 0.5 ± 0.7 revertant colonies per plate

**Q:** What do we get for "O=C(Cn1ccnc1-c1ccccn1)Nc1ccc(-c2ccccc2)cc1" ?
**A:** 1.5 ± 0.7 revertant colonies per plate

----------
Test system: TA 1535
Condition Context: TA 1535, 50 μM
Quantity Kind: Fold increase (over baseline)

Solved entries:
> print(dat)
                                   molecule  recorded.measurement
1  Cc1nc2c(c(N3CCCN(Cc4ccccc4)CC3)n1)CCCC2 [Compound 31]                  0.57
2  CC(C)(C)Sc1ccc(NC(=O)Cn2ccnc2)cc1 [Compound 3]                  0.34
3  O=C(Cn1cnc2c1CCCC2)Nc1ccc(-c2ccccc2)cc1 [Compound 1]                  0.23
4  O=C(Cn1ccnc1-c1ccccn1)Nc1ccc(-c2ccccc2)cc1 [Compound 4]                  0.23

Please find the next molecule below.
**Q:** I am curious: what Fold increase (over baseline) value has been reported for CC(C)c1nccn1CC(=O)Nc1ccc(-c2ccccc2)cc1 [Compound 2] ?
**A:** 0

----------
System: TA 1537
Assay Text: Ames Test, strain TA 1537
Condition Context: TA 1537, 200 μM (row printed 300; conc. column shifted)
Quantity Kind: Fold increase (over baseline)
Lab note: jot the number down without any unit.

Solved entries:
> print(dat)
                         chemical.structure  tested.target                  quantity.kind  recorded.measurement
1         CC(C)(C)Sc1ccc(NC(=O)Cn2ccnc2)cc1        TA 1537  Fold increase (over baseline)                  5.68
2   O=C(Cn1cnc2c1CCCC2)Nc1ccc(-c2ccccc2)cc1        TA 1537  Fold increase (over baseline)                  0.45
3   Cc1nc2c(c(N3CCCN(Cc4ccccc4)CC3)n1)CCCC2        TA 1537  Fold increase (over baseline)                  0.23
4  O=C(Cn1ccnc1-c1ccccn1)Nc1ccc(-c2ccccc2)cc1        TA 1537  Fold increase (over baseline)                  0.23

**Q:** Hi! What's the reported Fold increase (over baseline) for "CC(C)c1nccn1CC(=O)Nc1ccc(-c2ccccc2)cc1" on TA 1537?
**A:** 0.23

----------
Tested Target: hERG channel (Homo sapiens (Human))
Sequence (Q12809 whole entry): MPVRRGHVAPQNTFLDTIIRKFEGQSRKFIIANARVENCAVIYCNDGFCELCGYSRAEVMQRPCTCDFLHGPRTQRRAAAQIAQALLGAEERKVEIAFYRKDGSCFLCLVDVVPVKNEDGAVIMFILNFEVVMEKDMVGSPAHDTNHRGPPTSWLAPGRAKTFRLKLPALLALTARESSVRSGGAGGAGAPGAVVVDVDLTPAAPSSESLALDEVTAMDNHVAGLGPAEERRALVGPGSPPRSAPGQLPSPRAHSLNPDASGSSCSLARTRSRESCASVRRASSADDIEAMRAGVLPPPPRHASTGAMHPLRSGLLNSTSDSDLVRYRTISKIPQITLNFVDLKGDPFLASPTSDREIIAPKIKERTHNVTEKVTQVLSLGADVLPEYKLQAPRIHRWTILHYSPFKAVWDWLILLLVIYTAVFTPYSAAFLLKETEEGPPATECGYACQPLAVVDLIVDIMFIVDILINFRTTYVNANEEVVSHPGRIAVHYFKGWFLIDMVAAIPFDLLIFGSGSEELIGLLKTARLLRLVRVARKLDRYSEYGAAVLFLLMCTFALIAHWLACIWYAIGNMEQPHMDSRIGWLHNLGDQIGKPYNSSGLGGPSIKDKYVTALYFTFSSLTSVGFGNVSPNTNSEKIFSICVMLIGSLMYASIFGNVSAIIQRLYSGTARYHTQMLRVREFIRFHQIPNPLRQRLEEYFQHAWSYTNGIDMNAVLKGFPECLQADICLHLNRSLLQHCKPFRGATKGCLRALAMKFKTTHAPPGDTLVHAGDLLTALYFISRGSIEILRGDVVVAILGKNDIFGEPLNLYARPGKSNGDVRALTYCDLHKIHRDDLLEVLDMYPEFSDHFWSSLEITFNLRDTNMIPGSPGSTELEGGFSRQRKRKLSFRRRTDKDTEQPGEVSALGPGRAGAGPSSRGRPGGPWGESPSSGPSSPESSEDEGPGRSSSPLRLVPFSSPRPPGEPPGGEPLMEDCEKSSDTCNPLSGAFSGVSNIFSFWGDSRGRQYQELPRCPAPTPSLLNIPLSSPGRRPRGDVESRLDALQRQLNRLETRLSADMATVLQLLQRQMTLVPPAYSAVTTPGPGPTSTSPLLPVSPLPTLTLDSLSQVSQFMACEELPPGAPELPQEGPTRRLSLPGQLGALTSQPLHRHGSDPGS
Condition Context: 1 μM
Reported Binding values, % Mean is given for each of the following molecules.
Numbers only; they are read as %.

Solved entries:
> print(dat)
                                   molecule  output.unit  recorded.measurement
1  CC(C)c1nccn1CC(=O)Nc1ccc(-c2ccccc2)cc1 [Compound 2]            %                    47
2  CC(C)(C)Sc1ccc(NC(=O)Cn2ccnc2)cc1 [Compound 3]            %                    41
3  O=C(Cn1cnc2c1CCCC2)Nc1ccc(-c2ccccc2)cc1 [Compound 1]            %                    83
4  O=C(Cn1ccnc1-c1ccccn1)Nc1ccc(-c2ccccc2)cc1 [Compound 4]            %                    26

Please find the next molecule below.
**Q:** I am curious: what Binding values, % Mean value has been reported for Cc1nc2c(c(N3CCCN(Cc4ccccc4)CC3)n1)CCCC2 [Compound 31] ?
**A:** 45

----------
Tested on: TA 1537
Assay Text: Ames Test, strain TA 1537
Condition Context: TA 1537, 100 μM (row printed 200; conc. column shifted)
Reported Mean ± SD is given for each of the following compounds.

Solved entries:
> print(dat)
                         chemical.structure  tested.target  quantity.kind                   recorded.measurement
1    CC(C)c1nccn1CC(=O)Nc1ccc(-c2ccccc2)cc1        TA 1537      Mean ± SD     1 ± 0 revertant colonies per plate
2   O=C(Cn1cnc2c1CCCC2)Nc1ccc(-c2ccccc2)cc1        TA 1537      Mean ± SD  1 ± 1.41 revertant colonies per plate
3  O=C(Cn1ccnc1-c1ccccn1)Nc1ccc(-c2ccccc2)cc1        TA 1537      Mean ± SD     0 ± 0 revertant colonies per plate

**Q:** I am curious: what Mean ± SD value has been reported for "Cc1nc2c(c(N3CCCN(Cc4ccccc4)CC3)n1)CCCC2" ?
**A:** 0 ± 0 revertant colonies per plate

**Q:** What do we get for "CC(C)(C)Sc1ccc(NC(=O)Cn2ccnc2)cc1" ?
**A:** 0.5 ± 0.7 revertant colonies per plate

src = patent US11401255B2
